- study target: Nan-KLF1 zinc finger domain (mouse (murine), Nan mutant, UniProt P46099 243-358, E321D)
- Sequence (P46099 243-358 E321D): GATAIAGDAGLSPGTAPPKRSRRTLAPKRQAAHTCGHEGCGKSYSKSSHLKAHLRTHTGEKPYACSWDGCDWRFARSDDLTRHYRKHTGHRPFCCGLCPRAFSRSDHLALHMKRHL
- measurement notes: EMSA
readout label: binding result

[
  {
    "binder": "Alas2 variant 1 (CA), EMSA (dsDNA) DNA 1: TCTCTCCCATGCCCTGGGCTC DNA 2: GAGCCCAGGGCATGGGAGAGA",
    "result": "binds"
  },
  {
    "binder": "Alas2 (Category I, CG), EMSA (dsDNA) DNA 1: TCTCTCCCACGCCCTGGGCTC DNA 2: GAGCCCAGGGCGTGGGAGAGA",
    "result": "binds"
  },
  {
    "binder": "Alas2 variant 2 (CT), EMSA (dsDNA) DNA 1: TCTCTCCCAAGCCCTGGGCTC DNA 2: GAGCCCAGGGCTTGGGAGAGA",
    "result": "binds"
  },
  {
    "binder": "Alas2 variant 3 (AG), EMSA (dsDNA) DNA 1: TCTCTCCCACTCCCTGGGCTC DNA 2: GAGCCCAGGGAGTGGGAGAGA",
    "result": "binds"
  }
]
